Assay: yeast display, Sf9 membrane polyspecificity reagent, FACS + sequencing; frameworks hold sequencing errors
Property Measured: polyreactivity (PSR sort gate)

// below: answered sequences
{"columns": ["Biopolymer Sequence", "Result"],
 "data": [
  ["QVQLVESGGGLVQAGGSLRLSCAASGRTFVVNDMGWYRQAPGKERELVAAINYNAGSTFYADSVKGRFTISRYNAKKTVYYQMNSLKPEDTAVYYCATDVYGYVEYDYWGQGTQVTVSS", "low polyreactivity"],
  ["QVQLVESGGGLVQAGGSLRLSCAASGRTFARYTMGWYSQAPVKERELVASITRGGSTYYADSVKGRFTISSDNAKNTVYLQMYSLKPEDTAVYYCNAVYIVGGDWGQGTQVTVSS", "high polyreactivity"],
  ["QVQLVESGGGLDQAGGSLRLSCAASGRTFIRNVMGWYRQAPGKERELVAGITGGGNTYYADSVKGRFTISRDNAKNTVYLQMNSLKPEDTAVYYCAVRYPSYGLSYVRYGYWGQGTQVTVSS", "high polyreactivity"],
  ["QVQLVESGGGLVQAGGSLRLSCAASGRTFRGNAMGWYRQAPGKERELVAAISRRGVSTYYADSVKGRFTISRDNAKNTVYLQMNSLKPEDTAVYYCAVVVYQGFRSKYYYWGQGTQVTVSS", "high polyreactivity"],
  ["QVQLVESGGGLVQAGGSLRLSCAASGIIFGYYAMGGYRQAPGKERELVAAISSRGSRTYYADSVKGRFTISRDNAKNTVYLQMNSLKPEDTAVYYCAARHFARMGYWGQGTQVTVSS", "high polyreactivity"],
  ["QVQLVESGGGLVQAGGSLRLSGASYGFIFVWYAMGWYRQAPGKEREFVAAITSLGGSTYYADSVKGRFTISRDNEKNSVYLHMYSLNPEDTADYYCNAEFFYRGSGYDSWGQGTQVTVSS", "high polyreactivity"]
]}

Parameter requested: polyreactivity (PSR sort gate). Apply to each item below.
1. QVQLVESGGGLVQAGGSLRLSSAASGNTFRHYAMGRYRQAPGKERELVAAISYSGGSTYYADSVKGRFTISRDNAKNTVYLQMNSLKPEDTAVYYCAAYSYASYGVSGYYYWGQGTQVTVSS
2. QVQLVESGGGLVQAGGSLRLSCAPSGSTLTSNAMGWYRQAPGKERELVAASRSGGSTNYADSVKGRFTISRDNAKNTVYLQMNSLKPEDTAVYYCNKDFLWQGYGYSRVSYDYWGQGTQVTVSS

1. high polyreactivity
2. low polyreactivity

Below are some sequences; for each one, tell me its polyreactivity (PSR sort gate).
1. QVQLVESGGGLVQAAGSLRLSCAASGRTSVRYAMGWNRQAHGKERELVAAISWSGGSTYYADSVKGRFTISRDNAKNTVYLQMNSLKPEDTAVYYCNAQHALGYYYWGQGTQVTVSS
2. QVQLVESGGGLVQAGCSLRLSCAASGYMGWYRQAPGKERELVATISGSGGSTYYADSVKGRFTISRDNAKNTVYLQMNSLKPEDTAVYYCTTEIWGVNRSGYDYWGQGTQVTVSS
3. QVLLVESGGGLVQAGGSHRLSCAASGFIFWDYAKGGYRQAPGKERELVAAITSGGGSTYYADSVKGRFTISRDNAKNTVYLQMNSLKPEDTAVYYCNAVSWEGYDFDYWGQGTQVTVSS
4. QDQLVESGGGLVQAGGSLRLSCAPSGSIFYRNAMGWYRQAPGKERELVAAIRYSGDNTYYADSVKGRFTISRDNSKNTVYLQMNSLKPEDTAVYYCAADFPDYEYWGQGTQVTVSS
5. QVQLVESGGGLVQAGGSLRLSCAACGSIFLKYVMGWYRQAPGKERELVAAISFRSGSTYYADSVKGRFTISRDNAKNTVYVQMNSLKPEDTAVYYCAASWTPRYLGFDHWGQGSQVTVSS
6. QVQLVESGGGLVQAGGSLRLSCAASGITFGRYAMGWYRQAPGKERELVAAITTRGGSTYYADSVKGRFTISRDNAKNTVYLQMNSLKPEDTAVYYCAADYRWAGRYYYWGQGTQVTVSS

1: low polyreactivity; 2: low polyreactivity; 3: high polyreactivity; 4: high polyreactivity; 5: high polyreactivity; 6: high polyreactivity
